assay: in vivo; details: male, albino, rabbit, in vivo, po, 150 mg/kg, Cmax, TC 150 mg/kg orally; EDTA-treated rabbits
Where a name gives a salt, the structure may show the parent alone.
readout.kind: Cmax (µg/mL)

CN(C)[C@@H]1C(O)=C(C(N)=O)C(=O)[C@@]2(O)C(O)=C3C(=O)c4c(O)cccc4[C@@](C)(O)[C@H]3C[C@@H]12 [TC, tetracycline hydrochloride] = 1.12

====

test: in vivo; conditions: male, albino, rabbit, in vivo, po, 150 mg/kg, AUC0–∞, TC 150 mg/kg orally; EDTA-treated rabbits
Structures can show the parent of a compound that is named as a salt.
readout.kind: AUC(0-inf) (ng·h/mL)

CN(C)[C@@H]1C(O)=C(C(N)=O)C(=O)[C@@]2(O)C(O)=C3C(=O)c4c(O)cccc4[C@@](C)(O)[C@H]3C[C@@H]12 [TC, tetracycline hydrochloride] = 6490

====

assay: in vivo; conditions: male, albino, rabbit, in vivo, po, 150 mg/kg, Tmax, TC 150 mg/kg orally; control rabbits
Where a name gives a salt, the structure may show the parent alone.
readout.kind: Tmax

CN(C)[C@@H]1C(O)=C(C(N)=O)C(=O)[C@@]2(O)C(O)=C3C(=O)c4c(O)cccc4[C@@](C)(O)[C@H]3C[C@@H]12 [TC, tetracycline hydrochloride] = 1.67 h

====

assay: in vivo; settings: male, albino, rabbit, in vivo, po, 150 mg/kg, Cmax, TC 150 mg/kg orally; control rabbits
Structures can show the parent of a compound that is named as a salt.
readout.kind: Cmax (ng/mL)

CN(C)[C@@H]1C(O)=C(C(N)=O)C(=O)[C@@]2(O)C(O)=C3C(=O)c4c(O)cccc4[C@@](C)(O)[C@H]3C[C@@H]12 [TC, tetracycline hydrochloride] = 730

====

test: Solubility in pH 2 buffer and 0.1 M Tris-HCl buffer (pH 6.5); format: physicochemical; conditions: aqueous buffer, thermodynamic from solid; 0.1 M Tris-HCl buffer (pH 6.5), 25 °C; read-out: Solubility pH 6.5
readout.kind: solubility at 30 min (µg/mL)

CCOC(=O)OC(C)OC(=O)c1cn(C2CC2)c2cc(N3CCNCC3)c(F)cc2c1=O (stereo not shown) [CFX-EHE] = 3080

====

experiment: in vivo; conditions: male, albino, rabbit, in vivo, po, 150 mg/kg, Tmax, TC 150 mg/kg orally; EDTA-treated rabbits
Counter-ions that a name gives are not always drawn.
readout.kind: Tmax (h)

CN(C)[C@@H]1C(O)=C(C(N)=O)C(=O)[C@@]2(O)C(O)=C3C(=O)c4c(O)cccc4[C@@](C)(O)[C@H]3C[C@@H]12 [TC, tetracycline hydrochloride] = 2
